# Measured on: U87 ACKR3 (Homo sapiens, UniProt P25106)
# Construct: expressed in transfected cells
# Sequence (P25106 whole entry): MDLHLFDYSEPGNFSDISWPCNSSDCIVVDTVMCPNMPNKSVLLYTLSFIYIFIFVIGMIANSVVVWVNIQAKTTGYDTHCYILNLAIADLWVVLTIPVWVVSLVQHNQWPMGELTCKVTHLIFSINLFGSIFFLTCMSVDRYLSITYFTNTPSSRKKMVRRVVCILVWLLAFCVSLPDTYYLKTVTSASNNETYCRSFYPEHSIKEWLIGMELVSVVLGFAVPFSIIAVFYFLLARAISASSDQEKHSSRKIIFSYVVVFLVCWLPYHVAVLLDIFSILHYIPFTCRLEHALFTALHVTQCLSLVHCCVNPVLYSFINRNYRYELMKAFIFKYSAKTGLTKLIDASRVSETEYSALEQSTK
# Test summary: Figure 6c source data, U87 ACKR3
# Format: cell-based
# Condition set: Figure 6c inset, U87 ACKR3 + labelled peptide, titrated agonist not given, replicate 3
pEC50: −log10 of the molar value.

{"Substance": "H-MRRKFGGF-NH2 [LIH inverse]", "pEC50": 6.95}

---

Reported activation values are given for each entry in this list.
# Measured on: CXCR6 (Homo sapiens, UniProt O00574)
# Construct: expressed in transfected cells
# Sequence (O00574 whole entry): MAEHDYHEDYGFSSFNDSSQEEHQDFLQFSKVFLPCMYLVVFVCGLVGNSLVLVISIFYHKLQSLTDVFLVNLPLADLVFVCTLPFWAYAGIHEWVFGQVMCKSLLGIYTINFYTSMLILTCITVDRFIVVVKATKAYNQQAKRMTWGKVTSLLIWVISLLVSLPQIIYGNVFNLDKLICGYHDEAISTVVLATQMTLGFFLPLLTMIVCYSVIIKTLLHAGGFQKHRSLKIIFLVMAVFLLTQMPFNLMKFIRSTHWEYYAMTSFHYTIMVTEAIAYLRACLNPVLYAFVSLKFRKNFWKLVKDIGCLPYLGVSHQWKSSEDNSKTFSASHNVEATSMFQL
# Test summary: Figure S2a opioid peptide screen on chemokine receptors
# Format: cell-based
# Set-up: dose or concentration left out as unconfirmed
# Condition set: replicate 2, read-out: CXCR6 activity, ctrl+ = 100
Starred links: 1 amine or outer side, 2 acyl side, 3 side chain; linkers in the order of their positions; H or OH if unused. Non-standard residues stand in square brackets, D forms with d. Residues, ends and D or L forms follow the SMILES beside them. X1 = N[C@@H](Cc1ccccc1)CN(CC(=O)[*:2])[*:1]

{"Compound": "CC[C@H](C)[C@H](NC(=O)[C@H](CCCNC(=N)N)NC(=O)[C@H](CCCNC(=N)N)NC(=O)[C@H](CC(C)C)NC(=O)[C@H](Cc1ccccc1)NC(=O)CNC(=O)CNC(=O)[C@@H](N)Cc1ccc(O)cc1)C(=O)N[C@@H](CCCNC(=N)N)C(=O)N1CCC[C@H]1C(=O)N[C@@H](CCCCN)C(=O)N[C@@H](CC(C)C)C(=O)N[C@@H](CCCCN)C(=O)O", "activation [%]": -1.13}
{"Compound": "CC(C)C[C@H](NC(=O)[C@H](Cc1ccccc1)NC(=O)CNC(=O)CNC(=O)[C@@H](N)Cc1ccc(O)cc1)C(=O)N[C@@H](CCCN=C(N)N)C(=O)N[C@@H](CCCN=C(N)N)C(=O)N[C@@H](CCC(N)=O)C(=O)N[C@@H](Cc1ccccc1)C(=O)N[C@@H](CCCCN)C(=O)N[C@H](C(=O)N[C@H](C(=O)N[C@H](C(=O)O)[C@@H](C)O)C(C)C)C(C)C", "activation [%]": -1.2}
{"Compound": "CSCC[C@H](NC(=O)[C@H](Cc1ccccc1)NC(=O)CNC(=O)CNC(=O)[C@@H](N)Cc1ccc(O)cc1)C(=O)N[C@@H](CCCNC(=N)N)C(=O)N[C@@H](CCCNC(=N)N)C(=O)N[C@H](C(N)=O)C(C)C", "activation [%]": -0.941}
{"Compound": "NC(=O)[C@H](Cc1ccccc1)NC(=O)[C@H](Cc1c[nH]c2ccccc12)NC(=O)[C@@H]1CCCN1C(=O)[C@@H](N)Cc1ccc(O)cc1 [Endomorphin-1]", "activation [%]": 1.12}
{"Compound": "C[C@H](NC(=O)CNC(=O)[C@@H](NC(=O)[C@H](Cc1ccccc1)NC(=O)CNC(=O)CNC[C@@H](N)Cc1ccccc1)[C@@H](C)O)C(=O)N[C@@H](CCCNC(=N)N)C(=O)N[C@@H](CCCCN)C(=O)N[C@@H](CO)C(=O)N[C@@H](C)C(=O)N[C@@H](CCCNC(=N)N)C(=O)N[C@@H](CCCCN)C(N)=O [FG Nociceptin 1-13] (H-[X1]GFTGARKSARK-NH2)", "activation [%]": 0.0677}
{"Compound": "CC[C@H](C)[C@H](NC(=O)[C@H](CCCNC(=N)N)NC(=O)[C@H](CCCNC(=N)N)NC(=O)[C@H](CC(C)C)NC(=O)[C@H](Cc1ccccc1)NC(=O)CNC(=O)CN)C(=O)N[C@@H](CCCNC(=N)N)C(=O)N1CCC[C@H]1C(=O)N[C@@H](CCCCN)C(=O)N[C@@H](CC(C)C)C(=O)N[C@@H](CCCCN)C(=O)N[C@@H](Cc1c[nH]c2ccccc12)C(=O)N[C@@H](CC(=O)O)C(=O)N[C@@H](CC(N)=O)C(=O)N[C@@H](CCC(N)=O)C(=O)O", "activation [%]": -1.13}
{"Compound": "C[C@H](NC(=O)CNC(=O)[C@@H](NC(=O)[C@H](Cc1ccccc1)NC(=O)CNC(=O)CNC(=O)[C@@H](N)Cc1ccccc1)[C@@H](C)O)C(=O)N[C@@H](CCCNC(=N)N)C(=O)N[C@@H](CCCCN)C(=O)N[C@@H](CO)C(=O)N[C@@H](C)C(=O)N[C@@H](CCCNC(=N)N)C(=O)N[C@@H](CCCCN)C(N)=O", "activation [%]": -0.882}
{"Compound": "CC[C@H](C)[C@H](NC(=O)[C@H](CCCNC(=N)N)NC(=O)[C@H](CCCNC(=N)N)NC(=O)[C@H](CC(C)C)NC(=O)[C@H](Cc1ccccc1)NC(=O)CNC(=O)CNC(=O)[C@@H](N)Cc1ccc(O)cc1)C(=O)N[C@@H](CCCNC(=N)N)C(=O)N1CCC[C@H]1C(=O)N[C@@H](CCCCN)C(=O)N[C@@H](CC(C)C)C(=O)N[C@@H](CCCCN)C(=O)N[C@@H](Cc1c[nH]c2ccccc12)C(=O)N[C@@H](CC(=O)O)C(=O)N[C@@H](CC(N)=O)C(=O)N[C@@H](CCC(N)=O)C(=O)O", "activation [%]": -0.578}
{"Compound": "CC(C)C[C@H](NC(=O)[C@H](CCCCN)NC(=O)[C@H](CCCN=C(N)N)NC(=O)[C@H](C)NC(=O)[C@H](CO)NC(=O)[C@H](CCCCN)NC(=O)[C@H](CCCN=C(N)N)NC(=O)[C@H](C)NC(=O)CNC(=O)[C@@H](NC(=O)[C@H](Cc1ccccc1)NC(=O)CNC(=O)CNC(=O)[C@@H](N)Cc1ccccc1)[C@@H](C)O)C(=O)N[C@@H](C)C(=O)N[C@@H](CC(N)=O)C(=O)N[C@@H](CCC(N)=O)C(=O)O", "activation [%]": -0.718}
